These data points were gathered from patent US20130309252A1.

Biological target: Grasp55 PDZI + II (1-160), yeast two-hybrid construct (murine, UniProt Q99JX3 1-160)
Assay: yeast two-hybrid, growth on selective medium
Excerpt: The different GRASP55 constructs were cloned into pGBT9 GW vector (Ga14 DNA-binding domain fusion vector, Trp) as well in the pACT2 GW vector (Gal4 DNA-activation domain fusion vector, Leu) using the Gateway technology (Invitrogen). […]
readout name: binding result

Consider the worked cases shown below.
- binder: "TCYAQRKGYFSKETSFQKGSPASKVTTMSENDFKHTKS (other, End at 295 worked out from 'deletion of the last three amino-acids' of 258-298; not shown: Gal4 domain of the two-hybrid vector) [JAM-B ΔPDZbm, yeast two-hybrid construct lacking the last three amino-acids]"
  experimental value: "no binding"
- binder: "ICCAYRRGCFISSKQDGESYKSPGKHDGVNYIRTSEEGDFRHKSS (other, End at 307 worked out from 'deletion of the last three amino-acids' of 263-310; not shown: Gal4 domain of the two-hybrid vector) [JAM-C ΔPDZbm, yeast two-hybrid construct lacking the last three amino-acids]"
  experimental value: "no binding"
- binder: "ADAM17 C-terminal sequence, yeast two-hybrid construct (other, not shown: Gal4 domain of the two-hybrid vector) CVDKKLDKQYESLSLFHHSNIEMLSSMDSASVRIIKPFPAPQTPGRLQALQPAAMMPPVSAAPKLDHQRMDTIQEDPSTDSHVDDDGFEKDPFPNSSTAAKSFEDLTDHPVTRSEKAASFKLQRQSRVDSKETEC"
  experimental value: "no binding"
- binder: "AYSRGYFETTKKGTAPGKKVIYSQPSTRSEGEFKQTS (other, End at 296 worked out from 'deletion of the last three amino-acids' of 260-299; not shown: Gal4 domain of the two-hybrid vector) [JAM-A ΔPDZbm, yeast two-hybrid construct lacking the last three amino-acids]"
  experimental value: "no binding"

Consider the binder shown here: ICCAYRRGCFISSKQDGESYKSPGKHDGVNYIRTSEEGDFRHKSSFVI (other, also called JAM-C C-terminal region; not shown: Gal4 domain of the two-hybrid vector) [JAM-C cytoplasmic C-terminal construct, yeast two-hybrid] What is its recorded binding result?
binds

TCYAQRKGYFSKETSFQKGSPASKVTTMSENDFKHTKSFII (other, not shown: Gal4 domain of the two-hybrid vector) [JAM-B cytoplasmic C-terminal construct, yeast two-hybrid] , same question.
binds
